I'd be grateful if you could share measured C481S mutation-resistance for these entries.
Biological target: C481S mutant BTK [BTK(C481S)] (Homo sapiens (Human), UniProt Q06187, C481S)
Sequence (Q06187 whole entry C481S): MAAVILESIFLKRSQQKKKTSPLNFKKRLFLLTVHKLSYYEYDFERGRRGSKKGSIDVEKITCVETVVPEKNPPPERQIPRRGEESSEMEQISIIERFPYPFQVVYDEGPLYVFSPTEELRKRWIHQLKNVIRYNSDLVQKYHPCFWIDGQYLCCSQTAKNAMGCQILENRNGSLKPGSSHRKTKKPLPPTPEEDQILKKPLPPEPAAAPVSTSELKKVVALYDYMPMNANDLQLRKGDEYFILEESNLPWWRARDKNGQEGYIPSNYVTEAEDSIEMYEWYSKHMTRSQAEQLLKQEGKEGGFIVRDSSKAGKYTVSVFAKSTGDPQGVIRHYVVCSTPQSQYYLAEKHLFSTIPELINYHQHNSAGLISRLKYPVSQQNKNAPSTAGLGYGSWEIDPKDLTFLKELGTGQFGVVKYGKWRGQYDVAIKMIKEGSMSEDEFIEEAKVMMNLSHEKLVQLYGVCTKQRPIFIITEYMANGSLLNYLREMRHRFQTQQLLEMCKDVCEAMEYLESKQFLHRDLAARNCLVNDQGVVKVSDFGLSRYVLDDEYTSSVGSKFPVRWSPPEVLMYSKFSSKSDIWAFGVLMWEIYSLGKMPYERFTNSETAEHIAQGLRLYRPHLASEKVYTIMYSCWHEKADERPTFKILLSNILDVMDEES
Test: C481S Mutant BTK Inhibitory Activity Test (mobility shift assay)
Type: biochemical
Details: IC50[BTK(C481S)]/IC50[BTK(WT)]
Answers are plain numbers.

// below: answered compounds
structure.as.smiles | C481S mutation-resistance
CCN(CC)Cc1ccc(-c2cc3c(-c4cccc(-n5ccc6cc(C7CC7)cc(F)c6c5=O)c4CO)nc(N)nc3[nH]2)cc1 | 1.8
CN1CCN(Cc2ccc(-c3cc4c(-c5cccc(-n6ccc7cc(C8CC8)cc(F)c7c6=O)c5CO)nc(N)nc4[nH]3)cc2)CC1 | 1.3
CS(=O)(=O)N1CC=C(c2cc3c(-c4cccc(-n5ccc6cc(C7CC7)cc(F)c6c5=O)c4CO)nc(N)nc3[nH]2)CC1 | 2.1
Nc1nc(-c2cccc(-n3ccc4cc(C5CC5)cc(F)c4c3=O)c2CO)c2cc(-c3ccnc(F)c3)[nH]c2n1 | 1.5

Q) Enter reported C481S mutation-resistance observed with C481S mutant BTK [BTK(C481S)] (Homo sapiens (Human), UniProt Q06187, C481S) for Nc1nc(-c2cccc(-n3ccc4cc(C5CC5)cc(F)c4c3=O)c2CO)c2cc(C3=CCNCC3)[nH]c2n1
A) 2.4

###

Target: C481S mutant BTK [BTK(C481S)] (Homo sapiens (Human), UniProt Q06187, C481S)
Assay: C481S Mutant BTK Inhibitory Activity Test (mobility shift assay)
Settings: C481S mutant BTK, 100 μM ATP
Method: The kinase activity was measured using QuickScout Screening Assist (trademark) MSA (commercially available kit manufactured by Carna Biosciences, Inc.) by mobility shift assay (MSA) method. […] The heights of the peaks of the isolated substrate and the phosphorylated substrate were represented as S and P, respectively, and a blank which contained the assay buffer instead of the enzyme solution was also measured. […]
I'd be grateful if you could share measured IC50 for these entries.
Answers are plain numbers, in nM.

structure.as.smiles | experimental.result
CN(C)C(=O)N1CC=C(c2cc3c(-c4cccc(-n5ccc6cc(C7CC7)cc(F)c6c5=O)c4CO)nc(N)nc3[nH]2)CC1 | 0.95
CN(C)Cc1ccc(-c2cc3c(-c4cccc(-n5ccc6cc(C7CC7)cc(F)c6c5=O)c4CO)nc(N)nc3[nH]2)cc1 | 0.78

Continue with the compound presented below.
Q) // returns reported IC50 for input Nc1nc(-c2cccc(-n3ccc4cc(C5CC5)cc(F)c4c3=O)c2CO)c2cc(-c3ccc(CN4CCCC4)cc3)[nH]c2n1
A) 0.9

# credit: patent US10793575B2
